test system: Escherichia coli; test: Effect on growth of Escherichia coli ATCC 25922 assessed as bacterial growth inhibition measured after 16 to 18 hrs by CLSI method; format: organism-based; settings: in vivo
MIC values by entry

Consider the following illustrative entries.
COMPOUND_STRUCTURE_STRING	RESULT
Cc1nc2c([N+](=O)[O-])csc2c(=O)n1CCCc1ccccc1	> 777 µM
Cc1nc2c([N+](=O)[O-])coc2c(=O)[nH]1	> 700 µM
O=c1[nH]c(/C=C/c2ccccc2F)nc2c([N+](=O)[O-])csc12	> 807 µM

Asked: // fetch MIC for "O=c1[nH]cnc2ccc([N+](=O)[O-])cc12" ; system: Escherichia coli
Given back: > 700 µM

Asked: Give MIC for "Cc1nc2c([N+](=O)[O-])cccc2c(=O)[nH]1" tested on Escherichia coli.
Given back: > 700 µM

Asked: Output reported MIC of the compound "Cc1nc2c([N+](=O)[O-])csc2c(=O)n1Cc1ccc([N+](=O)[O-])cc1" on Escherichia coli.
Given back: > 739 µM

Asked: Give MIC for "Cc1nc2c([N+](=O)[O-])csc2c(=O)n1Cc1ccccc1" tested on Escherichia coli.
Given back: > 850 µM

Asked: Report the value of MIC obtained on Escherichia coli for "Cc1nc2c([N+](=O)[O-])scc2c(=O)[nH]1" .
Given back: > 700 µM

Asked: # assay system Escherichia coli: give MIC of "Cc1nc(N2CCOCC2)c2scc([N+](=O)[O-])c2n1"
Given back: > 913 µM

Asked: State, for Escherichia coli, measured MIC of the compound listed here: "Cc1nc2c([N+](=O)[O-])csc2c(=O)[nH]1"
Given back: > 1212 µM

Asked: State, for Escherichia coli, measured MIC of the compound listed here: "O=c1[nH]c(/C=C/c2ccc(Cl)cc2)nc2c([N+](=O)[O-])csc12"
Given back: > 767 µM

Asked: Give MIC; test system Escherichia coli; compound "O=c1[nH]c(/C=C/c2ccc(F)cc2)nc2c([N+](=O)[O-])csc12"
Given back: > 807 µM
